Data credit: ChEMBL document CHEMBL1141680

- Tested on: HCT-116
- Experimental Protocol: Cytotoxicity against human HCT116 cells
- Format: cell-based

[
  {
    "Compound": "Cn1nc(-c2ccccc2)c2c3c(c(=O)[nH]c21)CSC3",
    "Limit Sign": "=",
    "LD40 / µM": 21.2
  },
  {
    "Compound": "Cc1nn(C)c2[nH]c(=O)c3c(c12)CCCC3",
    "Limit Sign": ">",
    "LD40 / µM": 12.5
  },
  {
    "Compound": "Cc1nn(C)c2[nH]c(=O)c3c(c12)CCC3",
    "Limit Sign": "=",
    "LD40 / µM": 27.2
  },
  {
    "Compound": "Cc1nn(C)c2[nH]c(=O)c3c(c12)CSC3",
    "Limit Sign": ">",
    "LD40 / µM": 50
  },
  {
    "Compound": "Cn1nc(-c2cccs2)c2c3c(c(=O)[nH]c21)CCCC3",
    "Limit Sign": ">",
    "LD40 / µM": 12.5
  },
  {
    "Compound": "Cn1nc(-c2ccccc2)c2c3c(c(=O)[nH]c21)CCC3",
    "Limit Sign": "=",
    "LD40 / µM": 42.5
  },
  {
    "Compound": "Cn1nc(-c2ccccc2)c2c1NC(=O)C1CCCCC21 (stereo not drawn)",
    "Limit Sign": "=",
    "LD40 / µM": 7.5
  },
  {
    "Compound": "Cn1nc(-c2cccs2)c2c3c(c(=O)[nH]c21)CCC3",
    "Limit Sign": "=",
    "LD40 / µM": 11.2
  }
]
